System: SNB-75
Assay: Growth inhibition of human SNB75 cells after 48 hrs
Assay type: functional
Details: SNB-75, 48 h, read-out: pLC50 (the source's name) (converted)
assay_metric: CC50

Before answering, review these 3 worked examples.
{"columns": ["smiles_structure", "CC50"],
 "data": [
  ["COc1ccc(N(CC(=O)NCCC[Te]c2ccccc2)C(=O)CCSC2=C(C)C(=O)c3ccccc3C2=O)cc1", "45.7 µM"],
  ["COc1ccc(N(CC(=O)NCCC[Te]c2ccccc2)C(=O)c2ccccc2)cc1", "39.8 µM"],
  ["COc1ccc(N(CC(=O)NCCC[Te]c2ccccc2)C(=O)CNC(=O)OC(C)(C)C)cc1", "36.3 µM"]
]}

Shifting focus to the compound that follows.
Entry `CC1=C(SCCC(=O)OCC(=O)NCCC[Te]c2ccccc2)C(=O)c2ccccc2C1=O` needs its CC50 filled in; supply it. 24.5 µM

###

Overview of reported logP across a group of compounds:
Experiment: Octanol-water partition coefficient, log P of the compound by HPLC analysis
Type: physicochemical
Form: value (number only, do not type unit).

{"columns": ["smiles_structure", "logP"],
 "data": [
  ["COc1ccc(N(CC(=O)NCCC[Se]c2ccccc2)C(=O)c2ccccc2)cc1", 3.1]
]}

Entry `COc1ccc(N(CC(=O)NCCCSc2ccccc2)C(=O)C#Cc2ccccc2)cc1` needs its logP filled in; supply it. 3.4

Entry `CC1=C(SCCC(=O)OCC(=O)NCCC[Te]c2ccccc2)C(=O)c2ccccc2C1=O` needs its logP filled in; supply it. 3.8

Entry `COc1ccc(N(CC(=O)NCCC[Se]c2ccccc2)C(=O)C#Cc2ccccc2)cc1` needs its logP filled in; supply it. 2.6

Entry `CC(C)(C)OC(=O)NCC(=O)OCC(=O)NCCC[Te]c1ccccc1` needs its logP filled in; supply it. 3.83

Entry `COc1ccc(N(CC(=O)NCCC[Te]c2ccccc2)C(=O)CCSC2=C(C)C(=O)c3ccccc3C2=O)cc1` needs its logP filled in; supply it. 1.97

Entry `COc1ccc(N(CC(=O)NCCC[Te]c2ccccc2)C(=O)/C=C/c2ccccc2)cc1` needs its logP filled in; supply it. 1.31

Entry `COc1ccc(N(CC(=O)NCCCSc2ccccc2)C(=O)CNC(=O)OC(C)(C)C)cc1` needs its logP filled in; supply it. 3.12

###

Tested on: Escherichia coli
Assay: Antimicrobial activity against Escherichia coli tolC assessed as inhibition at 20 ug/6 mm disk after 1 to 2 days by agar diffusion assay
Assay type: functional
Overview of reported diameter of the inhibition zone (DIZ) across a group of molecules:
// note: answer is a bare numeric in mm

{"columns": ["smiles_structure", "diameter of the inhibition zone (DIZ), mm"],
 "data": [
  ["COc1ccc(N(CC(=O)NCCC[Se]c2ccccc2)C(=O)CCSC2=C(C)C(=O)c3ccccc3C2=O)cc1", 0],
  ["COc1ccc(N(CC(=O)NCCC[Te]c2ccccc2)C(=O)CCSC2=C(C)C(=O)c3ccccc3C2=O)cc1", 12]
]}

Entry `CC1=C(SCCC(=O)OCC(=O)NCCC[Te]c2ccccc2)C(=O)c2ccccc2C1=O` needs its diameter of the inhibition zone (DIZ) filled in; supply it. 11

Entry `O=C(COC(=O)/C=C/c1ccccc1)NCCC[Te]c1ccccc1` needs its diameter of the inhibition zone (DIZ) filled in; supply it. 0

Entry `COc1ccc(N(CC(=O)NCCCSc2ccccc2)C(=O)CNC(=O)OC(C)(C)C)cc1` needs its diameter of the inhibition zone (DIZ) filled in; supply it. 0

Entry `COc1ccc(N(CC(=O)NCCCSc2ccccc2)C(=O)c2ccccc2)cc1` needs its diameter of the inhibition zone (DIZ) filled in; supply it. 0

Entry `O=C(COC(=O)C#Cc1ccccc1)NCCC[Te]c1ccccc1` needs its diameter of the inhibition zone (DIZ) filled in; supply it. 0

Entry `COc1ccc(N(CC(=O)NCCC[Se]c2ccccc2)C(=O)C#Cc2ccccc2)cc1` needs its diameter of the inhibition zone (DIZ) filled in; supply it. 0

Entry `COc1ccc(N(CC(=O)NCCC[Te]c2ccccc2)C(=O)CNC(=O)OC(C)(C)C)cc1` needs its diameter of the inhibition zone (DIZ) filled in; supply it. 12
